# System: SK-MEL-5 melanoma
# PROTOCOL_SUMMARY: NCI-60 one-dose screen, 48 h (100 = growth as untreated, 0 = no growth, -100 = all killed)
# CONDITION_INFO: 10 µM
# Experimental: Growth inhibition of the SK-MEL-5 human tumor cell line is measured as a screen for anti-cancer activity. Cells are grown in 96 well plates and exposed to the test compound for 48 hours. Compounds are tested at a single concentration, which is 10^-5 M for most compounds. The reported endpoint is percent growth (GI% or GIPRCNT), where numbers from 0 - 100% represent growth inhibition, and numbers from -100% - 0 represent cell death. For example, a value of 40 represents 60% growth inhibition. […]
This is part of a sample that, as a whole, favours compounds with a hit. Of some 83,000 tested, about 20% had one in any assay.
A collection of compounds and their measured growth
I only need the number, in %, no unit after it.

Reference set (8 entries):
[[record]]
compound = "CO[C@H]1C[C@@H]2CC[C@@H](C)[C@@](O)(O2)C(=O)C(=O)N2CCCC[C@H]2C(=O)O[C@H]([C@H](C)C[C@@H]2CC[C@@H](O)[C@H](OC)C2)CC(=O)[C@H](C)C=C(C)[C@@H](O)[C@@H](OC)C(=O)[C@H](C)C[C@H](C)/C=C/C=C/C=C1C"
observed_result = 24.8

[[record]]
compound = "C[N+](C)(C)C(=O)c1ccccc1"
observed_result = 105

[[record]]
compound = "O=C(O)CCC(NC(=O)OCc1ccccc1)C(=O)O (stereo not given)"
observed_result = 101

[[record]]
compound = "Cc1cc(N)ccc1-c1ccc(N)cc1C"
observed_result = 99.7

[[record]]
compound = "CC(C)C1CCCCC1O (stereo not given)"
observed_result = 103

[[record]]
compound = "COC(=O)/C=C1\\Sc2cc(F)ccc2NC1=O"
observed_result = 104

[[record]]
compound = "CCOC(=O)/C(=C/c1ccc(OC)cc1)N(CC)CC"
observed_result = 99.7

[[record]]
compound = "N#CCc1ccc([N+](=O)[O-])cc1"
observed_result = 101


Notebook: OCc1ccc(-c2ccc(-c3ccc(CO)s3)o2)s1 , growth read as 60.6

Notebook: Cc1cc2nc(CO)[nH]c2cc1C , growth read as 112

Notebook: c1cc2cccc3c4cccc5cccc(c(c1)c23)c54 , growth read as 102

Notebook: O=[N+]([O-])c1cccc(C(F)(F)F)c1 , growth read as 107

Notebook: Cc1ncc(C#N)c(N)n1 , growth read as 89.9

Notebook: COc1ccccc1N1CCN(C(=S)Nc2ccccc2)CC1 , growth read as 97.9

* * *

# Test system: TK-10 renal
# PROTOCOL_SUMMARY: NCI-60 one-dose screen, 48 h (100 = growth as untreated, 0 = no growth, -100 = all killed)
# CONDITION_INFO: 10 µM unless noted
About 83,000 compounds went through this panel and 20% of them were active in at least one assay; those are over-represented in the sample as a whole. Where a SMILES comes first, the peptide text is derived from it. Bridges are numbered along the chain shown (N, C = ends). [ ]: non-standard residue; d: D form. The star is where a group is joined. ξ: configuration not given here. ξNMePhe(4-NMe2) = CNC(Cc1ccc(N(C)C)cc1)C(=O)O; Picolinoyl(3-OH) = O=C(c1ncccc1O)*; ξPip(4-oxo) = O=C1CCNC(C(=O)O)C1; Phg = N[CH](C(=O)O)c1ccccc1; Abu = CC[CH](N)C(=O)O
A collection of molecules and their measured growth
I only need the number, in %, no unit after it.

Reference set (3 entries):
[[record]]
molecule = "CCNc1nc2c(cnn2C)c(=O)[nH]1"
assay_endpoint = "growth"
readout_unit = "%"
observed_result = 104

[[record]]
molecule = "CCOC(=O)CCCC(=O)OCC"
assay_endpoint = "growth"
readout_unit = "%"
observed_result = 101

[[record]]
molecule = "CC(=Nc1ccccc1)C1=C(O)C(Cc2cccc(F)c2)NC1=O (stereo not given)"
assay_endpoint = "growth"
readout_unit = "%"
observed_result = 44.4


Notebook: COC(=O)/C=C/C(=O)NC(N)=O , growth read as 102

Notebook: Nc1nc(OCc2ccccc2)c2[nH]cnc2n1 , growth read as 82.1

Notebook: C/C(O)=C(\C=N\C(N)=S)C(=O)Nc1ccccc1 , growth read as 124

Notebook: CCC1NC(=O)C(NC(=O)c2ncccc2O)C(C)OC(=O)C(c2ccccc2)NC(=O)C2CC(=O)CCN2C(=O)C(Cc2ccc(N(C)C)cc2)N(C)C(=O)C2CCCN2C1=O (stereo not given) (tested in a mixture with another compound) ({Picolinoyl(3-OH)}-T[Abu]P[ξNMePhe(4-NMe2)][ξPip(4-oxo)][Phg]; ester 1-C; configuration not given here) , growth read as 91

Notebook: Oc1ccc(O)cc1 , growth read as 128

Notebook: COc1ccc(C(O)c2ccccc2)cc1 (stereo not given) , growth read as 101
